Taken from patent US20250270343A1.

Target: T1, soluble cynomolgus GPNMB (recombinant extracellular domain) (cynomolgus, UniProt Q14956 23-499 (human entry), limits assumed)
T1 chain: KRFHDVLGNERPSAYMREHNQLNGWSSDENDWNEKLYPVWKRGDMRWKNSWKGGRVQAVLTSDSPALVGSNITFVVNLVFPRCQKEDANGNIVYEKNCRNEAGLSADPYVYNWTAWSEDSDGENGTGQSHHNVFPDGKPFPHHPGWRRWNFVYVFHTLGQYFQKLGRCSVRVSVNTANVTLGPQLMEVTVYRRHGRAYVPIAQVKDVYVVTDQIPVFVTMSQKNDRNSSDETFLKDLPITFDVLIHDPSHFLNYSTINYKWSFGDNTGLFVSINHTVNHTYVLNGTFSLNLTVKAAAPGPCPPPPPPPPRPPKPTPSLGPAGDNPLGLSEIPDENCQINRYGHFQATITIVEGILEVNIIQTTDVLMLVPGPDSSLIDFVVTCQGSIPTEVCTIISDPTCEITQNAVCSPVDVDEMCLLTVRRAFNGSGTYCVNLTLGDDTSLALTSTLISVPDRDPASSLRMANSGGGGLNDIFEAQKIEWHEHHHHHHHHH
Assay: SPR Biacore, IgG captured
measurementType: koff (s⁻¹)
Express it in s⁻¹; write the number only.

Illustrative cases are given below, each with its answer.
>  <binder>
anti-GPNMB antibody GPN-85 (antibody, V domains shown) VH: QVQLQESGPGLVKPSETLSLTCTVSGISITTGNYRWSWIRQPPGKGLEWIGYIDYSGTITYNPSLKQRVTITRDTSKNQFSLELSSVTAADTAVYYCARDLTHWYFDVWGQGTLVTVSS VL: DIVMTQSPDSLAVSLGERATINCKSSRSVDYFGIGFLNWYQQKPGQPPKLLIYATSHQGSGVPDRFSGSGSGTDFTLTISSLQAEDVAVYYCQQQKEVPPTFGGGTKVEIK

>  <koff (s⁻¹)>
0.00021

$$$$
>  <binder>
anti-GPNMB antibody GPN-90 (antibody, V domains shown) VH: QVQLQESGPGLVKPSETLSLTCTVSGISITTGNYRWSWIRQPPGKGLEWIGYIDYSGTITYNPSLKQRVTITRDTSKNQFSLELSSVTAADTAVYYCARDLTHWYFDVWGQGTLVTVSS VL: DIVMTQSPDSLAVSLGERATINCKSSRSVDYYGIGFLNWYQQKPGQPPKLLIYATSHQGSGVPDRFSGSGSGTDFTLTISSLQAEDVAVYYCQQQKEVPPTFGGGTKVEIK

>  <koff (s⁻¹)>
0.00051

$$$$
>  <binder>
anti-GPNMB antibody GPN-84 (antibody, V domains shown) VH: QVQLQESGPGLVKPSETLSLTCTVSGISITTGNYRWSWIRQPPGKGLEWIGYIDYSGTITYNPSLKSRVTITRDTSKNQFSLELSSVTAADTAVYYCARDLTHWYYDVWGQGTLVTVSS VL: DIVMTQSPDSLAVSLGERATINCKSSRSVDYYGIGFVNWYQQKPGQPPKLLIYATSIQGSGVPDRFSGSGSGTDFTLTISSLQAEDVAVYYCQQQKEVPPTFGGGTKVEIK

>  <koff (s⁻¹)>
0.0019

$$$$

Next item in the queue.
anti-GPNMB antibody GPN-95 (antibody, V domains shown, also called PGN-95) VH: QVQLVQSGAEVKKPGASVKVSCKASGYTFTSYWMHWVRQAPGQGLEWMGEINPYDQRTNYAQKFQGRVTMTVDKSTSTVYMELSSLRSEDTAVYYCARSTGNYAWFAYWGQGTLVTVSS VL: DIVMTQSPDSLAVSLGERATINCKTSQDVSPSLAWYQQKPGQPPKLLIYSARYRYTGVPDRFSGSGSGTDFTLTISSLQAEDVAVYYCQQHYSIPLQFGGGTKVEIK has a reported koff of 0.0006
